Experimental System: T1, Recombinant human DSG2 protein (Leinco Technologies) (human, UniProt Q14126 50-609)
T1 construct: also called soluble DSG2; soluble recombinant DSG2
T1 sequence: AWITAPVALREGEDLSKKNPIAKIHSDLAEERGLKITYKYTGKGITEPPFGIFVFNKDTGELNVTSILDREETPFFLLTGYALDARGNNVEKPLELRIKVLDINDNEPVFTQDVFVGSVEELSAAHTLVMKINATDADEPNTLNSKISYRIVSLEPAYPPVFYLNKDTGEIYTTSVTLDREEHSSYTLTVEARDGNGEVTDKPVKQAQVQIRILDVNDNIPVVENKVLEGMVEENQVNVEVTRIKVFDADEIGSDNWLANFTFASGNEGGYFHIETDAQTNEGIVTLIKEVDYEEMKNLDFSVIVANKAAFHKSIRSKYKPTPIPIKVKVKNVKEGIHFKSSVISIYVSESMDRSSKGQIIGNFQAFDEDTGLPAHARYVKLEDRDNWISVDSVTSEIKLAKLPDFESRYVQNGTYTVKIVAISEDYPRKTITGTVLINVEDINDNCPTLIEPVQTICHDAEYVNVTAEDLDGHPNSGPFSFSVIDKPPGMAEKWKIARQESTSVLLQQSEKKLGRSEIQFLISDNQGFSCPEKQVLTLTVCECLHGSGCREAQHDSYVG
Test Summary: SPR (BIAcore 3000), DSG2 immobilised on the sensor chip, knobs injected at 2.5 to 10 µg/ml, BIAeval
Parameter Measured: koff (s⁻¹)
Give the quantity in s⁻¹, number only.

Here are 2 binders together with their reported answers.
Please look up its koff: wt Ad3 fiber knob without dimerization domain (ligand, range 108-319; also called wt Ad3knob/noDD; wt Ad3 knob (noDD); not shown: N-terminal 6-His tag of pQE30 and the Gly/Ser linker encoded by primer P1) NKLCSKLGNGLTFDSSNSIALKNNTLWTGPKPEANCIIEYGKQNPDSKLTLILVKNGGIVNGYVTLMGASDYVNTLFKNKNVSINVELYFDATGHILPDSSSLKTDLELKYKQTADFSARGFMPSTTAYPFVLPNAGTHNENYIFGQCYYKASDGALFPLEVTVMLNKRLPDSRTSYVMTFLWSLNAGLAPETTQATLITSPFTFSYIREDD
0.00572

Try the binder Ad3 fiber knob mutant K217E+F224S without dimerization domain (ligand, range 108-319; also called K217E/F224S mutant (non-dimerized form); not shown: N-terminal 6-His tag of pQE30 and linker) NKLCSKLGNGLTFDSSNSIALKNNTLWTGPKPEANCIIEYGKQNPDSKLTLILVKNGGIVNGYVTLMGASDYVNTLFKNKNVSINVELYFDATGHILPDSSSLKTDLELEYKQTADSSARGFMPSTTAYPFVLPNAGTHNENYIFGQCYYKASDGALFPLEVTVMLNKRLPDSRTSYVMTFLWSLNAGLAPETTQATLITSPFTFSYIREDD
0.00317

Next:
What value of koff has been recorded for this entry: Ad3 fiber knob mutant N293S without dimerization domain (ligand, range 108-319; also called N293S/noDD; not shown: N-terminal 6-His tag of pQE30 and linker) NKLCSKLGNGLTFDSSNSIALKNNTLWTGPKPEANCIIEYGKQNPDSKLTLILVKNGGIVNGYVTLMGASDYVNTLFKNKNVSINVELYFDATGHILPDSSSLKTDLELKYKQTADFSARGFMPSTTAYPFVLPNAGTHNENYIFGQCYYKASDGALFPLEVTVMLNKRLPDSRTSYVMTFLWSLSAGLAPETTQATLITSPFTFSYIREDD
8.7e-05
